Test system: membrane receptors of human breast cancer cells
Assay: Receptor binding, human breast cancer cell membranes (125I-[D-Trp6]LHRH as labelled ligand)
Conditions: 125I-[D-Trp]6 LHRH labelled ligand
Threshold check on Affinity Constant Ka 2: strictly below 3 µM⁻¹ is true; on or above 3 µM⁻¹ is false.

INSERT INTO results (substance, assigned_class) VALUES
  ('Ac-D-Nal(2)-D-Phe(4Cl)-D-Pal(3)-Ser-Tyr-D-Lys[A2 pr(EtCar)2 ]-Leu-Arg-Pro-D-Ala-NH2 [Peptide 9]', 'false'),
  ('Ac-D-Nal(2)-D-Phe(4Cl)-D-Pal(3)-Ser-Tyr-D-Lys[DL-A2 bu(Ac)2 ]-Leu-Arg-Pro-D-Ala-NH2 [Peptide 14]', 'true'),
  ('Ac-D-Nal(2)-D-Phe(4Cl)-D-Pal(3)-Ser-Arg-D-Lys[A2 pr(Ac)2 ]-Leu-Arg-Pro-D-Ala-NH2 [Peptide 2]', 'true'),
  ('Ac-D-Nal(2)-D-Phe(4Cl)-D-Pal(3)-Ser-Tyr-D-Lys[DL-A2 bu(PRL)2 ]-Leu-Arg-Pro-D-Ala-NH2 [Peptide 18]', 'false'),
  ('Ac-D-Nal(2)-D-Phe(4Cl)-D-Pal(3)-Ser-Tyr-D-Lys[A2 pr(Car)2 ]-Leu-Arg-Pro-D-Ala-NH2 [Peptide 7]', 'false'),
  ('Ac-D-Nal(2)-D-Phe(4Cl)-D-Pal(3)-Ser-Tyr-D-Lys[A2 pr(For)2 ]-Leu-Arg-Pro-D-Ala-NH2 [Peptide 10]', 'true'),
  ('Ac-D-Nal(2)-D-Phe(4Cl)-D-Pal(3)-Ser-Arg-D-Lys[A2 pr(EtCar)2 ]-Leu-Arg-Pro-D-Ala-NH2 [Peptide 4]', 'true'),
  ('Ac-D-Nal(2)-D-Phe(4Cl)-D-Pal(3)-Ser-Arg-D-Lys[A2 pr(Car)2 ]-Leu-Arg-Pro-D-Ala-NH2 [Peptide 1]', 'false'),
  ('Ac-D-Nal(2)-D-Phe(4Cl)-D-Pal(3)-Ser-Tyr-D-Lys[A2 pr(Ac)2 ]-Leu-Arg-Pro-D-Ala-NH2 [Peptide 8]', 'false'),
  ('Ac-D-Nal(2)-D-Phe(4Cl)-D-Trp-Ser-Arg-D-Lys[A2 pr(Ac)2 ]-Leu-Arg-Pro-D-Ala-NH2 [Peptide 23]', 'true'),
  ('Ac-D-Nal(2)-D-Phe(4Cl)-D-Trp-Ser-Arg-D-Lys[A2 pr(Car)2 ]-Leu-Arg-Pro-D-Ala-NH2 [Peptide 22]', 'true');

---

Test system: perfused rat pituitary cell system (LH response to LH-RH)
Test: LH-RH inhibiting activity in superfused rat pituitary cell system
Assay type: cell-based
Settings: antagonist to LH-RH ratio 3:1; 0 min
Quick reference: % inhibition of LH response of the listed items.
recorded_metric: % inhibition of LH response (%)

INSERT INTO assay_data (substance, units_label, observed) VALUES
  ('Ac-D-Nal(2)-D-Phe(4Cl)-D-Pal(3)-Ser-Tyr-D-Lys[A2 pr(EtCar)2 ]-Leu-Arg-Pro-D-Ala-NH2 [Peptide 9]', '%', 90),
  ('Ac-D-Nal(2)-D-Phe(4Cl)-D-Pal(3)-Ser-Tyr-D-Lys[DL-A2 bu(PRL)2 ]-Leu-Arg-Pro-D-Ala-NH2 [Peptide 18]', '%', 90),
  ('Ac-D-Nal(2)-D-Phe(4Cl)-D-Pal(3)-Ser-Arg-D-Lys[A2 pr(EtCar)2 ]-Leu-Arg-Pro-D-Ala-NH2 [Peptide 4]', '%', 91),
  ('Ac-D-Nal(2)-D-Phe(4Cl)-D-Pal(3)-Ser-Tyr-D-Lys[DL-A2 bu]-Leu-Arg-Pro-D-Ala-NH2 [Peptide 26]', '%', 90),
  ('Ac-D-Nal(2)-D-Phe(4Cl)-D-Pal(3)-Ser-Arg-D-Lys[A2 pr(Ac)2 ]-Leu-Arg-Pro-D-Ala-NH2 [Peptide 2]', '%', 88);
